Reference source for all entries: patent US20040214988

# System name: Leu-bZip (GCN4 bZip segment, residues 226-281) (UniProt P03069 P03069:226-281)
# Sequence (P03069 226-281, one chain of several): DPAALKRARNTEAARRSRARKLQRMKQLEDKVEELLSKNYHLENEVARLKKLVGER
# Method: EMSA; densitometry of mobility shift
# Study conditions: protein: synthetic; tags: 56-residue peptide; chain copies: 2 (stated, dimer)
Measure: pKd
Notebook: values listed as pKd are -log10 of the concentration (mol/L).

Return reported pKd. Input binder: AP-1 site oligonucleotide (dsDNA) DNA 1: GTGGAGATGACTCATCTCCGG DNA 2: CCGGAGATGAGTCATCTCCAC
7.89
